Molecular target: Egl nine homolog 1 (Homo sapiens)
Sequence (Q9GZT9 whole entry, the tested form may be a part): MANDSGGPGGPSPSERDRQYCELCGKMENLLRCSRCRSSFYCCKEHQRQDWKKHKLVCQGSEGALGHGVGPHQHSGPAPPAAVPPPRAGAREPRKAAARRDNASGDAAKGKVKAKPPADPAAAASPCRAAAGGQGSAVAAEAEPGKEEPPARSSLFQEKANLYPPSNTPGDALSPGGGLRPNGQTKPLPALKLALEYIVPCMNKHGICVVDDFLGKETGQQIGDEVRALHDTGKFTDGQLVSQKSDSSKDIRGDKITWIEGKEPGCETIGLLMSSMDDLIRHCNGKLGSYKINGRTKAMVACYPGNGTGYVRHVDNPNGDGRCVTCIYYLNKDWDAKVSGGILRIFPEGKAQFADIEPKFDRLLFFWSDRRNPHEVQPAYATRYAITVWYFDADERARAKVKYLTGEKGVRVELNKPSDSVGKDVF
Assay: Inhibition of N-terminal truncated PHD2 (unknown origin) using biotin labelled DLDLEMLAPYIPMDDDFQL as substrate by AlphaScreen assay
metric_name: IC50

Exam item: Dear colleague, please send me the reported IC50 for O=C(O)CCC(=O)NNC(=O)c1cc2ccccc2cn1 when you can.
Marked response: 18.4 µM

---

Biological target: UniProtKB Q9H6Z9
Sequence (Q9H6Z9 whole entry): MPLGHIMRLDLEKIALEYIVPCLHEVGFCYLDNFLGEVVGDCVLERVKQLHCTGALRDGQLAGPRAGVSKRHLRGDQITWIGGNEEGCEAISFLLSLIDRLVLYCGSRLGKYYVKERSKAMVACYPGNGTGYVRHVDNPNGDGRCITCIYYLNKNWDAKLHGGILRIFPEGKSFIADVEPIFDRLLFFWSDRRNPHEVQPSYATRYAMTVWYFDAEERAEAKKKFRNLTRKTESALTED
Assay: Inhibition of PHD3 (unknown origin)
metric_name: IC50 (nM)
# unit: nM | format: bare number

Exam item: State, in one line, measured IC50 of O=C(O)CNC(=O)c1c(O)n(C2CCCCC2)c(=O)n(C2CCCCC2)c1=O
Marked response: 5.5
